Source: patent US20180185504A1

Molecular target: T1, human PRLR on cells (endogenous on T47D, T47D#11, MCF7); introduced in HEK293/hPRLR/STAT5-Luc, 293/hPRLR, … (human, UniProt P16471 25-622)
T1 sequence: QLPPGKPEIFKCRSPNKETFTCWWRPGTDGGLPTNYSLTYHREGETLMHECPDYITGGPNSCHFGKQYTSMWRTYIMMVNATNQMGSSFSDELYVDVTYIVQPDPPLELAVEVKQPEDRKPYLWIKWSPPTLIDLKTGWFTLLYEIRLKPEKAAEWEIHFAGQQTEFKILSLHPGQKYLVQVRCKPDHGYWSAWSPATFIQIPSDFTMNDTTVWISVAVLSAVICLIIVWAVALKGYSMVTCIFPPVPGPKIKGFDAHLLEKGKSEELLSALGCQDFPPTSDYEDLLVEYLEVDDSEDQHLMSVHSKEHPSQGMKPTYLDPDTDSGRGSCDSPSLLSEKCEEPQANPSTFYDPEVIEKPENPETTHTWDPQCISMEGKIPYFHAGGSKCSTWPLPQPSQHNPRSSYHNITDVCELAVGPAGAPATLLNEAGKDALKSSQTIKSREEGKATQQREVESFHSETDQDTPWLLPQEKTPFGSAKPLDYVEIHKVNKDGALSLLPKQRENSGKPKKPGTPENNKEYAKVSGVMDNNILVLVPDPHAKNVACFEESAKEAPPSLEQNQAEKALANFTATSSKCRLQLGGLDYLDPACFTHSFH
Assay: cell-based or functional assay
quantity: Percent Blocking at 100 nM Antibody (STAT5-Luc reporter)
Report field: quantity (unit follows the number).

**Q:** Can you share its Percent Blocking at 100 nM Antibody (STAT5-Luc reporter)? I mean this binder: H1H6800P (antibody, human IgG1, V domains shown, human IgG1 Fc (H1H)) VH: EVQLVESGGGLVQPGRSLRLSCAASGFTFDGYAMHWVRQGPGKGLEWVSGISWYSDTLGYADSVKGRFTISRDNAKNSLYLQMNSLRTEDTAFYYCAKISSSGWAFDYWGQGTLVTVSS VL: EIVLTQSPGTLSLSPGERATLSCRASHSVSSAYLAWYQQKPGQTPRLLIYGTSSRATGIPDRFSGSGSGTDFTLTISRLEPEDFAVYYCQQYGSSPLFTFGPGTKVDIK
**A:** 100%

**Q:** Can you share its Percent Blocking at 100 nM Antibody (STAT5-Luc reporter)? I mean this binder: H1H6953N (antibody, human IgG1, V domains shown, also called H1M6953N) VH: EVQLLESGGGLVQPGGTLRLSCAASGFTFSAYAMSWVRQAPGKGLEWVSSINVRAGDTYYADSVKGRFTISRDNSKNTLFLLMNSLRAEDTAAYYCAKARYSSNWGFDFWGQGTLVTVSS VL: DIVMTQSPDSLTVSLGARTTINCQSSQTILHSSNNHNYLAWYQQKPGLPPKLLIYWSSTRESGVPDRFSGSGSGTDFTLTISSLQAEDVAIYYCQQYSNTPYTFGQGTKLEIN
**A:** 100%

**Q:** Can you share its Percent Blocking at 100 nM Antibody (STAT5-Luc reporter)? I mean this binder: H1H6785P (antibody, human IgG1, V domains shown, human IgG1 Fc (H1H)) VH: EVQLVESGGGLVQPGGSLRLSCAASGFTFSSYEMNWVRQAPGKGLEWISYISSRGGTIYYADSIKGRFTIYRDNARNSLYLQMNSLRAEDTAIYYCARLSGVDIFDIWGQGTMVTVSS VL: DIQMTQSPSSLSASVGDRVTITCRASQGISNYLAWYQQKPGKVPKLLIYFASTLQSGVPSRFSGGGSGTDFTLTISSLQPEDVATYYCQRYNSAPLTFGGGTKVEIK
**A:** 100%

**Q:** Can you share its Percent Blocking at 100 nM Antibody (STAT5-Luc reporter)? I mean this binder: H1H6958N2 (antibody, human IgG1, V domains shown, also called H2M6958N2) VH: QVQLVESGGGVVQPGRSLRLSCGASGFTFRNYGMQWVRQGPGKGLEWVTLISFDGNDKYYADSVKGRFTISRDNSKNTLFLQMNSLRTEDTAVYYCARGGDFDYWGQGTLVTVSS VL: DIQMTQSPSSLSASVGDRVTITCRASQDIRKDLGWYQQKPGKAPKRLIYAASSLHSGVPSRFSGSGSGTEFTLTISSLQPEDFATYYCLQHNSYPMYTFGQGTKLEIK
**A:** 100%

**Q:** Can you share its Percent Blocking at 100 nM Antibody (STAT5-Luc reporter)? I mean this binder: H1H6782P (antibody, human IgG1, V domains shown, human IgG1 Fc (H1H)) VH: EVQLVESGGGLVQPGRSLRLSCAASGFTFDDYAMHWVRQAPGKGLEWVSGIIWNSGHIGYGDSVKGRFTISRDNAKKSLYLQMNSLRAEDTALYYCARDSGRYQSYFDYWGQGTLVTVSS VL: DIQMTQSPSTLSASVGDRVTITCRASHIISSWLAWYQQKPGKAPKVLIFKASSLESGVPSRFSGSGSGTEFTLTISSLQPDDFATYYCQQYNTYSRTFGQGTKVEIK
**A:** 0%
